experiment: folding stability dG unfold from chymotrypsin proteolysis; higher = more stable
Field: folding stability dG unfold. Provide a value for each of the sequences that follow.
Reply with just the number (in kcal/mol).

Give the measured folding stability dG unfold of SAGGVVTFLPGNLIKTTYFDPEKGTRTETLYYVPPDGTTTKLKTTVTPIPPTPLERPFFFGPDDVPVLSAGG [r13_646_JUSTAS] .
0.306

Request: SAGGSAMPLEELKKVTITLSFYNENGELVAEMTLEYDEETDVFTMTVKVRYNGKTYTVEMEFKLLPSAGGSA [r15_278_TrROS_Hall]
5.29

Same again, this time with SMPKKIIVLEVDEEEIKEFLEKLELGEDTEVKILLSFPDGKTALLEIGPNEIKSIKPIDAIPEKAYIVIASA [r9_849_TrMRF]
0.755

Quick one: SAGGSAGGSAMLVIRVYFEDTGRVLTLTADSEEEALEAIKRLLPPGAKIKKVEIFEVSEEDLSAGGSAGGSA [r18_350_TrROS_Hall]
4.44

SAGGSAGGKPKIIEEKELEFTRKDGKKVKIKLVKNEDGKVFAFNKDTGKVITLPLDELKALLKSSAGGSAGG [r6_579_TrROS_Hall] ?
2.37

Same again, this time with SAGMKIEVKRLPGPGDYLFTLVDPELAARLKAVYPGLEEVIFPVGGPDSVPEEEIKERAEKELKELLLSAGG [r19_298_JUSTAS]
-0.66

One more sequence: SAGGSAGGSGSMSTPVTEEITLTLTRTTEDGTEVVITIKVKVVKDPTSDVVTVTEVLSETVEPSAGGSAGGS [r12_358_JUSTAS]
2.54

Next: SAGGSAGGMIRTYELPETGEVRVLIRTPNPEEAEALAAEVRAELAAAGLDVPVEISPGPASALDSAGGSAGG [r6_641_JUSTAS]
0.703

Next: SAGGSAGGSAGSLTFQLPNGTEITVTEITLEIKLPNGDVILIKITVDPEPPVTTEVTFVNSAGGSAGGSAGG [r11_804_JUSTAS]
1.37

Next sequence: SAGGSAGGSAGSEVEKARNAALEARRAGVEEVTITMPEELKEKVTALAKEEGINLKIESESAGGSAGGSAGG [r11_371_JUSTAS]
0.0457

Would you mind doing SAGGSAGGSAGGMVVRITTKDGRTITFPPGTSLEELRSLPADEITRVEVVEVEPVRVVEPSAGGSAGGSAGG [r7_190_TrROS_Hall] as well?
1.97

Now the same for SAGGPLTLEDLKNMPPGEKLEFTFGGYTYEVEIYKNDNGPPYITVKQRDPHDGEPVEEKRVPADDIVSAGGS [r16_763_TrROS]
1.92

Next sequence: SAGGAPVHLDTTATTIEPLPTGGPVLRVETRFPDGSTRTGDFASREELLARLEASPDAATIRLAAVASAGGS [r16_757_JUSTAS]
0.896

Now this one: SAGGSAGGSAGGKPVKLEISFDKETNTITIKAVDEENKTVTETTIKVTFLPPPPPPPPKSAGGSAGGSAGGS [r10_331_TrROS_Hall]
2.14
